# credit: the nanobody polyreactivity screen of Harvey et al. (2022)

# MEASUREMENT NOTES: yeast display, Sf9 membrane polyspecificity reagent, FACS + sequencing; frameworks hold sequencing errors
MEASUREMENT NAME: polyreactivity (PSR sort gate)

Below, each entry is followed by its recorded polyreactivity (PSR sort gate) result.
QVQLVDSGGGLVQAGGSLRLSCAASGSIFVGNAMGWYRQAPGKERELVAAISWRGGRTYYADSVKGRFTISRDNAKYTVYLQMNSLKPEDTAVYYCATVKARDYGYWGQGTQVTVSS high polyreactivity
QVQLVESGGGLVQAGGSLRLSCAASGRTFNIYAMGWYRQAPGKVRELVAAISSGGSTYYADSVKGRFTISRDNAKNTVYLQMNSLKPEDTAVYYCAAVEFELRGDYWGQGTQVTVSS low polyreactivity
QVQLVESGGGLVQAGGSLRLSCAASGSISYPNAMGWYRQAPGKERELVAAINSGDRTNYADSVKGRFTISRDNAKNTVYLQMNSLKPEDTAVYYCARRRYLLWGGYGYWGQGTQVTVSS low polyreactivity
QVQLVESGGGLVQAGGSLRLSCAASGSIFYFNAMGWYRRAPGKERELVAGISARGGSTYYADSVKGRFTISRDHAKNTVYIQMNSLKPEDTAGYYCAAYGTTRSRKRAFAWWGYDYWGQGTQVTVSS low polyreactivity
QVQLVESGGGLVQAGGSLRLSCAASGSIFKYYTMGWYRQAPGKERELVARISTRGDSTYYADSVKGRFTISRDNAKNTVYLQMNSLKPEDTAVYYCNARPGSRRSSTWGMDYWGQGTQVTVSS high polyreactivity

For every record below, what is its polyreactivity (PSR sort gate)?
1. QVQLVDSGVGLVQAGGSLRLSCAASGRIFDYYAMGWYRQAPGKERELVAAITSGGTTTYYADSVKGRFTISRDNAKNTVYLQMNSLKPEDTAVYYCAASFFGDGYIDLWYKFDYWGQGTQVTVSS
2. QVQLVESGGGLVQAGGSLRLSWAASGSIITSNGMGWYRQAPGKERELVAAITSGTSTYYADSVKGRFTISRDNAKNTVYLQMNSLKPEDTAVYYCAAGRWWVYRYARYYYWGQGTQVTVSS
3. QVQLVESGGGLVQAGGSLRLSCAASGRIFYPYAMGWYRQAPGKERELVAAIDKGGGSTYYADSVKGRFTISRDNAKNTVYLQMNSLKPEVTAVYYCAAGWEYPYDYWGQGTQVTVSS
4. QVQLVESGGGLVQAGGSLRLSCAASGSTFSGNAMGWYRQAPGKERELVAAITSSGGSTYYADSVKGRFTISRDTAKNTVYLQMNSLKPEDTAVYYCAAKSRRTRRSYYWGQGTQVTVSS
5. QVQLVESGGGLVQAGGSLRLSCDASGSTFTFNDMGWYRQAPGKERELVAAITSGGSTTYADSVKGRFTISRDNAKNTVYLQMNSLKPEDTAVYYCAADYVYFYFYGYDSWGQGTQVTVSS
6. QVQLVESGGGLVQAGGSLRLSCAASGSIIPVYAMGWDRQAPGKVRQLVAAISSRGGRTYYADSVKGRFKISRDNAKNTVYLQMNSLKPEDTAVYYCASVYATYYRLPSQYDYWGQGTQVTVSS

Result:
1: low polyreactivity; 2: high polyreactivity; 3: low polyreactivity; 4: high polyreactivity; 5: low polyreactivity; 6: low polyreactivity

----------
# MEASUREMENT NOTES: yeast display, Sf9 membrane polyspecificity reagent, FACS + sequencing; frameworks hold sequencing errors
MEASUREMENT NAME: polyreactivity (PSR sort gate)

QVQLVESGGGLVQAGGSLRLSCAASGLIFARYVMGWSRQAPGKERELVADIDKGGGSTYYADSVKGRFTISRDNAKNTVYLQMNSLKPEDTAVYYCNADFDGWWWDDYWGQGTQVTVSS high polyreactivity
QVQLVESGGGLVQAGGSLRLICAASGSIFLGYAMGWYRPAPGKERELVAAISTSGGGTYYADSVKGRFTISRDNAKNTVYLQMNSLKPEDTAVYYCNAVSHYKYDWGQGTQVTVSS low polyreactivity
QVQLGESGGGLVQAGGSLRLSCAASGSIFGYYAMGWYRQAPGKERELVAAINYSGVSTYYADSVKGRFTISRDNAKNTVYLQMNSLKPEDTAVYYCAALRLYEPGPYGGPLRYGYWGQGTQVTVSS high polyreactivity
QVQLVESGGGLVQAGGSLRLSCAASGITFGDYDMGWYRPAPGKERELVAAITYDGGTTYYADSVKGRFTISRDNAKNTVYLQMHSLKPEDTAVYYCNADSYRGLYDYWGQGTQVTVSS low polyreactivity
QVQLVESGGGLVQAGGSLRLSCAASGSTFRRYAMGWYRQAPGKERELVAAITSTDVNTYYADSVKGRFTISRDNAKNTVYFQMNSLKPEDTAVYYCAAVYLGYYGVSDMEYWGQGTQVTVSS high polyreactivity

Below is a list of sequences. For each, state its recorded polyreactivity (PSR sort gate).
1. QVQLVESGGGLVQAGGSLRLSCAASGSTFVRNAMGWYRQAPGKERELVAGISTGDNTYYADSVKGRFTISRDNAKNTVNLQMNSLKPEDTAVYYCAARGLPSNYYYYVHGYIMDYWGQGTQVTVSS
2. QFQLVESGGGLVQAGGSLRLSCAASGSFSGTNAMGWYRQAPGKERELVAGISYGGGSTYYADSVKGRFTISRDNAKNTVYLQMNSLKPEDTAVYYCAKYYAPYRFYYCGQGTQVTVSS
3. QVQLVESGGGLVQAGGSLRLSCAASGRIFYLYAMGWYRQAPGKDRELVAAITWSGGSTTYADSVKGRFTISRDTAKNTVYLQMNSLKPEDTAVYYSNADGWIFPSFSPMDYWGQGTQVTVSS
4. QVQLVESGGGLVQAGGSLRLSCAASGNIIVFYAMGWYRQAPGKEREFVAAITSGGSTNYADSVKGRFTISRDNAKNTVYLQMNSLKPEDTAVYYCAGRQWFSHRRWGGSRYDYWGQGTQVTVSS
5. QVQLVESGGGLVQAGGSLRLSCAASGRTFHYYVMGWYRQAAGKERELVAAISRSGGNTYYADSVKGRFTISRDNAKNTVYLQMNSLKPEDTAVYYCAAALSAYVKWDYYYWGQGTQVTVSS

Result:
1: low polyreactivity; 2: high polyreactivity; 3: low polyreactivity; 4: high polyreactivity; 5: low polyreactivity

Request: Given QVQLVESGGGLFQAGGSLRLSCAASGRTFGYNVMGWYRQATGKERELVAGITSSGSTNYADSVKGRFTISRDNVKNTFYLQMNSLKPEETAVYYCAAGDRRWGFQVGYWGQGTQVTVSS , state its recorded polyreactivity (PSR sort gate).
Result: high polyreactivity
